measurement-target: human P2X7 receptor (Homo sapiens, UniProt Q99572, R270H/Y155H)
assay-protocol: Evaluation of human P2X7 receptor inhibitory activity (Yo-Pro uptake, BzATP stimulation, FLIPR TETRA)
Type: cell-based
particulars: 1321N1 cells stably expressing human P2X7 receptor; BzATP stimulation, Yo-Pro uptake; read-out: IC50 (antagonistic activity for the human P2X7 receptor), class symbol
observation-type: IC50

Some molecules with recorded IC50:
Input: # query: IC50 of entry COc1cn(Cc2ccccc2)c(Nc2cccc(OC(F)F)c2Cl)nc1=O [Compound I-0133]
Output: 100 to 500 nM

Input: Request the reported IC50 associated with CCc1ccc(Cl)cc1Nc1nc(=O)c(OC)cn1Cc1ccc(F)cc1 [Compound I-0388]
Output: 10 to 100 nM

Input: May I ask what IC50 has been recorded for CCc1cc(OC)ccc1Nc1nc(=O)c(OC)cn1Cc1ccc(F)c(F)c1 [Compound I-0264] ?
Output: < 10 nM

Input: Entry under review: COc1cc(Nc2nc(=O)c(OC)cn2Cc2cccc(Cl)c2)c(C)cc1Cl [Compound I-0534] . Reported IC50?
Output: < 10 nM

Further cases:
Input: I'd like to know its IC50. The molecule in question is Cc1c(Cl)cccc1Nc1nc(=O)c(CC(N)=O)cn1Cc1ccccc1 [Compound I-0026]
Output: 10 to 100 nM

Input: Give its IC50 value. Item: COCCNC(=O)Cc1cn(Cc2ccccc2)c(Nc2cccc(Cl)c2C)nc1=O [Compound I-0340]
Output: 100 to 500 nM

Input: Dear colleague, I am looking for the recorded IC50 of the following molecule: COc1cn(Cc2cc(C)cc(F)c2)c(Nc2cccc(Cl)c2C)nc1=O [Compound I-0461]
Output: < 10 nM

Input: Any idea what IC50 was measured for COc1cn(Cc2cc(F)cc(F)c2)c(Nc2cc(C)c(OC(F)F)cc2C)nc1=O [Compound I-0355] ?
Output: < 10 nM

Input: For COc1cn(Cc2ccccc2Cl)c(Nc2cccc(Cl)c2C)nc1=O [Compound I-0125] , what is its reported IC50?
Output: 10 to 100 nM

Input: Entry under review: COc1cn(Cc2cc(C)cc(F)c2)c(Nc2cccc(Cl)c2C)nc1=O [Compound I-0478] . Reported IC50?
Output: < 10 nM

====

measurement-target: human P2X7 receptor (Homo sapiens, UniProt Q99572, R270H/Y155H)
assay-protocol: Evaluation of human P2X7 receptor inhibitory activity (Yo-Pro uptake, BzATP stimulation, FLIPR TETRA)
Type: cell-based
particulars: antagonistic activity for the human P2X7 receptor; read-out: IC50
Experimental: Stably expressing cell line (1321N1 cell transfected with the human P2X7 receptor gene (GenBank accession number NM_002562.5 including T606C and G952A SNP)) was used. […] Measurement of fluorescence intensity by FLIPR TETRA was started. […] Changing values of fluorescence intensity by the compound of the present invention were calculated by difference between maximum and minimum fluorescence intensity for 20 minutes. Inhibition ratios (%) were calculated from the following equation: […]
pIC50: −log10 of the molar value.
observation-type: pIC50

Here's what some known entries look like.
Input: Requested read-out: pIC50. Entry: COc1cc(Nc2nc(=O)c(OC)cn2Cc2cc(F)cc(F)c2)c(C)cc1F
Output: 7.00 to 8.00

Input: Consider the molecule Cc1cc2c(cc1Nc1nc(=O)c(F)cn1Cc1ccc(F)c(F)c1)COC2 and give its measured pIC50.
Output: > 8.00

Input: Recorded pIC50 of COc1cn(Cc2cc(F)cc(F)c2)c(Nc2cc(OC(F)F)ccc2C)nc1=O , please.
Output: 7.00 to 8.00

Field: next molecule
Input: Need pIC50, item O=c1nc(Nc2cccc3c(O)cccc23)n(Cc2ccc(F)c(F)c2)cc1F
Output: > 8.00
